Each entry below carries its reported AC50.
- experimentalProtocol: non-covalent RecA intein splicing inhibitors, dose response, biochemical, cell-free, fluorescence, secondary screen (AID 449750)
Active and inactive are the calls of the source. No rule for the calls is given here.

> print(dat)
                                   compound  quantityname                 val
1  Cc1ccccc1NC(=O)C(=Cc1ccc(C(=O)O)cc1)C(=O)Nc1ccccc1C          AC50  > 38 µM (inactive)

// switching to the query compound
Qu. Quick check: AC50 of Cc1cccc(CS(=O)(=O)c2ncc(Cl)c(C(=O)Nc3c(C)cccc3C)n2)c1 ?
Ans. > 38 µM (inactive)

---

- experimentalProtocol: non-covalent RecA intein splicing inhibitors, dose response, biochemical, cell-free, fluorescence, secondary screen (AID 449750)
Active and inactive are the calls of the source. How the calls were made is not given here.
// classify into t = active, f = inactive

Take a look at these entries with their results.
> print(dat)
                                   compound  cat
1  CCOC(=O)CSc1nc2sc3c(c2c(=O)n1C1CCCCC1)CCN(C)C3    f
2                c1cc2cn[nH]c2cc1NC1CCCCCC1    t

Qu. What did the test return for CCN(CC)c1ccc(/C=C2\C(=O)N(c3nnc(C)c(=O)[nH]3)N=C2C)cc1 ?
Ans. t

Qu. What did the test return for COc1cc(C2(c3ccc(O)c(OC)c3)C(=O)Nc3c(Br)cc(Br)cc32)ccc1O ?
Ans. t

---

- experimentalProtocol: non-covalent RecA intein splicing inhibitors, dose response, biochemical, cell-free, fluorescence, secondary screen (AID 449750)
Activity calls are given as the source filed them. No rule for the calls is given here.
// classify into active, inactive

> print(dat)
                                   compound     cat
1  N#Cc1c(N2CCCC2)nc(N)c2c(N)nc(N3CCCC3)cc12  active
2        COc1ccc(CC2=CC(=O)c3ccccc3C2=O)cc1  active

Qu. What did the test return for COc1ccc(NC(=O)CSc2c3c(nc4cc(Cl)ccc24)CCCC3)cc1OC ?
Ans. active

Qu. What did the test return for COc1ccc(-n2nc3c(c2NC(=O)CCl)CSC3)cc1 ?
Ans. active

Qu. What did the test return for Cc1[nH][nH]c(=O)c1C(c1ccccc1[N+](=O)[O-])C(C#N)C#N (stereo unspecified) ?
Ans. inactive

Qu. What did the test return for CCCCOc1ccc(C(=O)C(CN2CCOCC2)c2ccccc2)cc1 (stereo unspecified) ?
Ans. active

Qu. What did the test return for C/C(CC(=O)Nc1ccccn1)=N\NC(=O)c1cccc(C)c1 ?
Ans. inactive

Qu. What did the test return for CC[n+]1ccc2cc(OC)c(OC)cc2c1Cc1ccc(OC)c(OC)c1 ?
Ans. inactive

Qu. What did the test return for CC(CCc1ccccc1)NC(=O)COC(=O)c1cc(NS(=O)(=O)c2ccc(Cl)c([N+](=O)[O-])c2)ccc1O (stereo unspecified) ?
Ans. active

Qu. What did the test return for Cc1ccc(S(=O)(=O)c2c(N)n(CCC(C)C)c3nc4ccccc4nc23)cc1 ?
Ans. active

Qu. What did the test return for O=C(Oc1ccc(C(=S)N2CCOCC2)cc1)c1ccc([N+](=O)[O-])cc1[N+](=O)[O-] ?
Ans. inactive

---

- experimentalProtocol: non-covalent RecA intein splicing inhibitors, dose response, biochemical, cell-free, fluorescence, secondary screen (AID 449750)
Calls of active or inactive are those of the source. How the calls were made is not given here.
// classify into y (active), n (inactive)

Take a look at these entries with their results.
> print(dat)
                                   compound  cat
1  CC(C)(C)c1cc(C(c2cccnc2)N2CCN(CCO)CC2)cc(C(C)(C)C)c1O (configuration not stated)    y
2  CCCc1[nH]nc2c1C(c1ccsc1)C(C#N)=C(N)O2 (configuration not stated)    n
3      CCOC(=O)c1c(CCl)nc2ccccc2c1-c1ccccc1    y
4  COc1cccc(C(c2c(C)[nH]n(-c3ccccc3)c2=O)c2c(C)[nH]n(-c3ccccc3)c2=O)c1OC    y

Next compound, please.
Qu. What did the test return for COc1cccc(-c2cc(=O)[nH][nH]2)c1 ?
Ans. y

---

Each entry below carries its reported AC50.
- experimentalProtocol: non-covalent RecA intein splicing inhibitors, dose response, biochemical, cell-free, fluorescence, secondary screen (AID 449750)
Activity calls are given as the source filed them. The rule behind the calls is not given here.

// known answers, use as guide
> print(dat)
                                   molecule                 val
1  Cc1ccc(-n2nc(C)c3c2OC(N)=C(C#N)C3c2ccc(C)o2)cc1 (stereo not given)             8.87 µM
2  Cc1nn(Cc2ccccc2)c2c1C(c1ccco1)C(C#N)=C(N)O2 (stereo not given)  > 38 µM (inactive)
3             CCN(Cc1ccc(OC)c(F)c1)C(=O)CCl             11.9 µM

Qu. Quick check: AC50 of COc1ccc(N2C(=O)C(Cl)=C(Oc3cccc(OC)c3)C2=O)cc1 ?
Ans. > 38 µM (inactive)

Qu. Quick check: AC50 of CCCc1[nH]nc2c1C(c1ccc(OC(=O)c3ccco3)cc1)C(C#N)=C(N)O2 (stereo not given) ?
Ans. > 38 µM (inactive)

Qu. Quick check: AC50 of O=C(O)c1ccc([N+](=O)[O-])c2c1C(=O)c1ccccc1C2=O ?
Ans. > 38 µM (inactive)

Qu. Quick check: AC50 of N#CCCn1[nH]c(-c2ccccc2)cc1=O ?
Ans. 8.16 µM

---

- experimentalProtocol: non-covalent RecA intein splicing inhibitors, dose response, biochemical, cell-free, fluorescence, secondary screen (AID 449750)
Calls of active or inactive are those of the source. How the calls were made is not given here.
quantityName: AC50

// known answers, use as guide
> print(dat)
                                   compound                 val
1   CN(C(=O)C(Cl)Cl)c1ccc(OC(=O)c2ccco2)cc1  > 38 µM (inactive)
2  Cc1c([N+](=O)[O-])cnc(Sc2ccccc2)c1[N+](=O)[O-]             1.23 µM
3  COC(=O)COc1c(Cl)cc(C(c2c(C)[nH][nH]c2=O)c2c(C)[nH][nH]c2=O)cc1OC             27.8 µM

Qu. Quick check: AC50 of Cc1cc2c(N)cccc2nn1 ?
Ans. > 38 µM (inactive)

Qu. Quick check: AC50 of O=c1cc(C23CC4CC(CC(C4)C2)C3)[nH][nH]1 ?
Ans. > 38 µM (inactive)

Qu. Quick check: AC50 of CC1=NN(c2ccccc2)C(=O)/C1=C/c1c(O)[nH]c(=O)[nH]c1=O ?
Ans. > 38 µM (inactive)

Qu. Quick check: AC50 of COc1ccc(C2CC(c3cccs3)=NN2C(=O)CSC2=NCCS2)cc1 (stereo unspecified) ?
Ans. 38.2 µM

Qu. Quick check: AC50 of CCOc1cc(C(c2c(C)[nH][nH]c2=O)c2c(C)[nH][nH]c2=O)ccc1O ?
Ans. 5.54 µM

Qu. Quick check: AC50 of Cc1oc2c(c1C(=O)N1CCOCC1)C(=O)c1ccccc1C2=O ?
Ans. 9.55 µM

Qu. Quick check: AC50 of COc1ccc(Br)cc1[C@H]1[C@@H]2C=CCC[C@@]2(C)C(=O)N1Cc1ccccc1 ?
Ans. > 38 µM (inactive)

Qu. Quick check: AC50 of Cc1nnc(NC(=O)c2nc(S(=O)(=O)Cc3ccccc3C)ncc2Cl)s1 ?
Ans. > 38 µM (inactive)

Qu. Quick check: AC50 of COc1cccc(N2CC(C(=O)Nc3nnc(SCC(=O)c4ccccc4)s3)CC2=O)c1 (stereo unspecified) ?
Ans. > 38 µM (inactive)

Qu. Quick check: AC50 of CCCn1c(=O)[nH]c(=O)c2c1nc(-c1ccc(OC(F)F)c(OC)c1)n2CCOC ?
Ans. > 38 µM (inactive)

Qu. Quick check: AC50 of O=S(=O)(CCSc1nc2ccccc2s1)c1nc2ccccc2s1 ?
Ans. 27.3 µM

Qu. Quick check: AC50 of CC(=O)Nc1ccccc1NC(=O)C/C(C)=N/NC(=O)C(=O)N1CCCCC1 ?
Ans. > 38 µM (inactive)

Qu. Quick check: AC50 of Cc1[nH]n(-c2ccccc2)c(=O)c1/C=N/NC(=O)c1ccc(O)cc1O ?
Ans. > 38 µM (inactive)

Qu. Quick check: AC50 of Cc1ccc(-c2[nH]nc3c2C(c2ccc(OC(=O)N4CCOCC4)cc2)C(C#N)=C(N)O3)cc1 (stereo unspecified) ?
Ans. 21.1 µM

Qu. Quick check: AC50 of O=C1C2=C(NC(=S)NC2c2ccc(Cl)cc2)NC(c2ccc(Cl)cc2)N1c1ccc(Cl)cc1 (stereo unspecified) ?
Ans. 4.62 µM

Qu. Quick check: AC50 of CCCCC[C@H](O)/C=C/[C@@H]1[C@@H](C/C=C\CCCC(=O)OC)[C@@H](O)C[C@H]1O ?
Ans. 36.5 µM

Qu. Quick check: AC50 of O=C(O)/C=C/C(=O)Nc1ccc(C2(c3ccc(NC(=O)/C=C/C(=O)O)cc3)c3ccccc3-c3ccccc32)cc1 ?
Ans. 4.61 µM

Qu. Quick check: AC50 of CCc1ccc(OCC(=O)N/N=C2\CC(=O)c3ccccc32)cc1 ?
Ans. 26.8 µM
